Assay: IN Cell qHTS Assay for Inhibitors of the mTORC1 Signaling Pathway in MEF (Tsc2-/-, p53-/-) Cells: Sytravon; further: nearly all actives have a fitted effect of over 60% in size
Details: phospho-rpS6 immunofluorescence, 24 h; series mostly up to 38.3 µM
About 210 (10%) of roughly 2,100 compounds were called active. About 53% were inconclusive and are not listed. The call rests on the fitted dose curve; in most records, active means well fitted inhibition curve with a large enough effect; inconclusive means small, poorly fitted or top-dose-only effect, or effect the other way; inactive means no such curve, though single readings can be large or run the other way. The list shows a part of the results.
Outcome codes: label 1 (active), label 0 (inactive)

MOLECULE: Cc1ccc(NC(=O)CCNS(=O)(=O)c2cccc3nonc23)cc1Cl
CLASS ASSIGNMENT: label 0

MOLECULE: COc1ccc(CCNC(=O)CCc2cn(Cc3ccc(F)cc3)c3ccccc23)cc1OC
CLASS ASSIGNMENT: label 0

MOLECULE: Cc1ccc(CNC(=O)Cn2c(SCC(=O)Nc3ccc(F)cc3)nc3ccccc32)cc1
CLASS ASSIGNMENT: label 1

MOLECULE: Cc1cccc(Cn2c(=O)n(CCCC(=O)NCc3ccccc3Cl)c(=O)c3ccccc32)c1
CLASS ASSIGNMENT: label 0

MOLECULE: CCc1cccc(NC(=O)Cn2c(=O)n(CCC(=O)NCc3ccccc3Cl)c(=O)c3sccc32)c1
CLASS ASSIGNMENT: label 0

MOLECULE: Cc1cccc(N2CCN(C(=O)Cn3c(=O)c4cccn4c4ccc(F)cc43)CC2C)c1 (stereo not given)
CLASS ASSIGNMENT: label 0

MOLECULE: COc1ccc(OC2CCN(S(=O)(=O)c3ccc(OC)cc3)CC2)cc1
CLASS ASSIGNMENT: label 0

MOLECULE: Cc1nnc(NC(=O)c2nc(S(=O)(=O)Cc3ccccc3)ncc2Cl)s1
CLASS ASSIGNMENT: label 1

MOLECULE: CCN1CCOC(=O)C1CC(=O)Nc1ccc(Br)cc1 (stereo not given)
CLASS ASSIGNMENT: label 0

MOLECULE: Cc1ccc(-c2nnc(Nc3cccc(Cl)c3)c3ccccc23)cc1S(=O)(=O)N1CCN(C)CC1
CLASS ASSIGNMENT: label 1

MOLECULE: CCc1nnc(NC(=O)c2nc(S(=O)(=O)Cc3cccc(C)c3)ncc2Cl)s1
CLASS ASSIGNMENT: label 1

MOLECULE: CCOC(=O)c1ccc(N2C(=O)c3n[nH]c(-c4cccs4)c3C2c2cccc(F)c2)cc1 (stereo not given)
CLASS ASSIGNMENT: label 1

MOLECULE: CCOC(=O)c1c(NC(=O)c2ccc(S(=O)(=O)N3CCC(C)CC3)cc2)sc2c1CCN(C)C2
CLASS ASSIGNMENT: label 0

MOLECULE: COc1ccc2nc(NC(=O)c3nc(S(=O)(=O)Cc4ccccc4)ncc3Cl)sc2c1
CLASS ASSIGNMENT: label 1

MOLECULE: CC1CCN(S(=O)(=O)c2ccc3nc(Nc4cccc(F)c4)ccc3c2)CC1
CLASS ASSIGNMENT: label 0

MOLECULE: COc1ccc(S(=O)(=O)NC2(C(F)(F)F)NC(=O)N(CCc3ccc(OC)c(OC)c3)C2=O)cc1 (stereo not given)
CLASS ASSIGNMENT: label 0

MOLECULE: Cc1nc2nncn2c(NCc2ccc(Cl)cc2)c1C
CLASS ASSIGNMENT: label 0

MOLECULE: CC1=C(C(=O)Nc2ccccc2)C(c2cccnc2)n2nc(SCc3ccccc3F)nc2N1 (stereo not given)
CLASS ASSIGNMENT: label 0

MOLECULE: CCOc1ccccc1NC(=O)Cn1ccn(Cc2ccc(C)cc2)c(=O)c1=O
CLASS ASSIGNMENT: label 0

MOLECULE: Clc1cccc(CSc2ccc(-c3cccs3)nn2)c1
CLASS ASSIGNMENT: label 0

MOLECULE: COc1ccc(-c2nc(SCC(=O)Nc3ccc4c(c3)OCO4)c(-c3ccc(OC)cc3)[nH]2)cc1
CLASS ASSIGNMENT: label 0

MOLECULE: CCCN(Cc1cccs1)C(=O)Nc1ccccc1C
CLASS ASSIGNMENT: label 0

MOLECULE: Cc1c2cnn(CC(=O)NCc3ccccc3)c(=O)c2c(C)n1Cc1cccc(Cl)c1
CLASS ASSIGNMENT: label 0

MOLECULE: Cc1cc(-c2ccc(C)c(S(=O)(=O)N3CCOc4ccc(Cl)cc43)c2)on1
CLASS ASSIGNMENT: label 0

MOLECULE: COc1ccc(NC(=O)CSc2nc3ccccc3n2Cc2cccc(OC)c2)cc1
CLASS ASSIGNMENT: label 1

MOLECULE: COc1ccc(Nc2nnc(-c3ccc(C)c(S(=O)(=O)N4CCN(C)CC4)c3)c3ccccc23)cc1
CLASS ASSIGNMENT: label 1

MOLECULE: CCOC(=O)c1c(NC(=O)c2ccc(S(=O)(=O)N3CCC(C)CC3)cc2)sc2c1CCN(C(C)C)C2
CLASS ASSIGNMENT: label 0

MOLECULE: COc1cccc(-n2ccnc2SCC(=O)Nc2nc3ccc(C)cc3s2)c1
CLASS ASSIGNMENT: label 0

MOLECULE: Cc1cccc(CS(=O)(=O)c2ncc(Cl)c(C(=O)NCc3ccccc3)n2)c1
CLASS ASSIGNMENT: label 1

MOLECULE: CCc1nnc(NC(=O)c2nc(S(=O)(=O)Cc3ccc(C)cc3)ncc2Cl)s1
CLASS ASSIGNMENT: label 1

MOLECULE: Cc1ccc(S(=O)(=O)C2(C(=O)Nc3ccc(C(C)C)cc3)CC2)cc1
CLASS ASSIGNMENT: label 0

MOLECULE: CCC1(C)CC(=O)c2c(ccc3oc(C(=O)NCc4ccccc4)c(C)c23)O1 (stereo not given)
CLASS ASSIGNMENT: label 0

MOLECULE: CCOC(=O)c1ccc(N2C(=O)c3n[nH]c(-c4cccs4)c3C2c2ccc(CC)cc2)cc1 (stereo not given)
CLASS ASSIGNMENT: label 0

MOLECULE: CC1=Nc2cc(C(=O)NC3CCCC3)ccc2Sc2ccc(C)cc21
CLASS ASSIGNMENT: label 0

MOLECULE: Cc1cccc(NC(=O)Cn2nc(-c3ccc(Cl)cc3)c3ccccc3c2=O)c1
CLASS ASSIGNMENT: label 0

MOLECULE: Cc1cccc(Nc2nnc(-c3ccc(C)c(S(=O)(=O)N4CCN(C)CC4)c3)c3ccccc23)c1
CLASS ASSIGNMENT: label 1

MOLECULE: CCCCn1c(=N)n(CCOc2ccccc2OC)c2ccccc21
CLASS ASSIGNMENT: label 1

MOLECULE: COc1ccc(NC(=O)CSCc2cnn(-c3ccccc3)c2-n2cccc2)cc1
CLASS ASSIGNMENT: label 0

MOLECULE: COc1cc2c(cc1OC)n(CC(=O)c1ccc(F)cc1)c(=O)n1nc(CCn3nc(C)cc3C)nc21
CLASS ASSIGNMENT: label 0

MOLECULE: COc1ccccc1N1CCN(C(=O)CSc2nc3ccccc3nc2Cc2ccc(C)cc2)CC1
CLASS ASSIGNMENT: label 0

Value source: PubChem BioAssay AID504465
